# ASSAY OVERVIEW: Solubility of the compound in water
# Type: physicochemical
Peptide text beside a SMILES is read from it.
METRIC: solubility

Q: Which value of solubility has been reported for C[C@@H](O)[C@H](NC(=O)[C@H](CCCCN)NC(=O)CCCC[C@@H]1CCSS1)C(=O)N[C@H](C(=O)N[C@@H](CCCCN)C(=O)N[C@@H](CO)C(=O)O)[C@@H](C)O (HELM PEPTIDE1{[O=C(CCCC[C@@H]1CCSS1)[*:2]].K.T.T.K.S}$$$$V2.0) in the records?
Ans: > 100 mg/mL
